test: Half life in rhesus monkey at 0.5 mg/kg, iv; assay type: ADME, organism-based, Macaca mulatta; design: dose 0.5 mg/kg, route intravenous; settings: in vivo
Metric: half-life
Quick note: number first, unit second.

What does the data say about its half-life? Entry: CN1C(=O)NC(=O)[C@@]12Cc1cc3ccc(CN4CC5(C)CC(=O)Nc6cccc4c65)nc3cc1C2 (stereo partly specified)
1.7 h

====

target: Calcitonin gene-related peptide type 1 receptor (Homo sapiens, UniProt O60894+Q16602); test: Antagonist activity at human CLR expressed in human HEK293 cells coexpressing human RAMP1 assessed as Inhibition of CGRP-induced cAMP production in the presence of 50% human serum; assay type: functional, cell-based
Sequence (Q16602 whole entry, one chain of several): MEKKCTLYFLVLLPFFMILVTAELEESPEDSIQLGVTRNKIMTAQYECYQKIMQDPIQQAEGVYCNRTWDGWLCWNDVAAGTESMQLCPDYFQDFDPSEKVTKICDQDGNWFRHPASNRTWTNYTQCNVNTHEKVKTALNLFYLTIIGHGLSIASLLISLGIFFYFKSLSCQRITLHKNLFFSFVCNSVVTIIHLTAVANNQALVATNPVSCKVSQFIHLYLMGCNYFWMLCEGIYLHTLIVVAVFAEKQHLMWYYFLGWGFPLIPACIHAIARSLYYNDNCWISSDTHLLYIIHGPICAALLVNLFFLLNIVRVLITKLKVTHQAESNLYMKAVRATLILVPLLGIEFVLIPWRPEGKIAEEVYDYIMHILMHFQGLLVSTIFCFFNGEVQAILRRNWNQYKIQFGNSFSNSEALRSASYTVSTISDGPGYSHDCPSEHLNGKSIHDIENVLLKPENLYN
pIC50: −log10 of the molar value.
Returns one of TRUE or FALSE; TRUE when pIC50 is >= 7.

Please review the entries below; each comes with its answer.
CN1C(=O)Cn2c(=O)n(Cc3ccc4cc5c(cc4n3)C[C@@]3(C5)C(=O)NC(=O)N3C)c3cccc1c32 : FALSE
O=C1CC2CN(Cc3ccc4cc5c(cc4n3)C[C@@]3(C5)C(=O)Nc4ncccc43)c3cccc(c32)N1 (some centres not stated) : TRUE
CN1C(=O)NC(=O)[C@@]12Cc1cc3ccc(CN4CC5(C)CC(=O)Nc6cccc4c65)nc3cc1C2 (some centres not stated) : TRUE
CN1C(=O)NC(=O)[C@@]12Cc1cc3ccc(CN4C(=O)CCc5ccccc54)nc3cc1C2 : FALSE
CN1C(=O)NC(=O)[C@@]12Cc1cc3ccc(Cn4c(=O)n5c6c(cccc64)NC(=O)C5)nc3cc1C2 : TRUE
CC12CC(=O)Nc3cccc(c31)N(Cc1ccc3cc4c(cc3n1)C[C@@]1(C4)C(=O)Nc3ncccc31)C2 (some centres not stated) : TRUE

Answer whether pIC50 of CCC12CC(=O)Nc3cccc(c31)N(Cc1ccc3cc4c(cc3n1)C[C@@]1(C4)C(=O)Nc3ncccc31)C2 (some centres not stated) is greater than or equal to 7.
TRUE

Can you handle O=C1Cn2c(=O)n(Cc3ccc4cc5c(cc4n3)C[C@@]3(C5)C(=O)Nc4ncccc43)c3cccc(c32)N1 next?
TRUE

Can you handle CN1C(=O)NC(=O)[C@@]12Cc1cc3ccc(CN4CC5CC(=O)Nc6cccc4c65)nc3cc1C2 (some centres not stated) next?
TRUE

Can you handle CCC12CC(=O)Nc3cccc(c31)N(Cc1ccc3cc4c(cc3n1)C[C@@]1(C4)C(=O)NC(=O)N1C)C2 (some centres not stated) next?
TRUE

====

assay: Oral bioavailability in rat at 5 mg/kg in presence of PEG400:water; format: ADME, organism-based; conditions: in vivo
Metric: bioavailability (%)
Please reply with the bare figure in % and do not write the unit itself.

What does the data say about its bioavailability? Entry: O=C1Cn2c(=O)n(Cc3ccc4cc5c(cc4n3)C[C@@]3(C5)C(=O)Nc4ncccc43)c3cccc(c32)N1
0

====

test: Clearance in rat at 10 mg/kg, po and 2 mg/kg, iv; type: ADME, organism-based; conditions: in vivo
Metric: clearance (mL/min/kg)
Please reply with the bare figure in mL/min/kg and do not write the unit itself.

What does the data say about its clearance? Entry: CN1C(=O)NC(=O)[C@@]12Cc1cc3ccc(CN4CC5(C)CC(=O)Nc6cccc4c65)nc3cc1C2 (stereo partly specified)
14

====

test: Oral bioavailability in rat at 10 mg/kg in presence of lmwitor:tween; type: ADME, organism-based; details: in vivo
Metric: bioavailability (%)
Please reply with the bare figure in % and do not write the unit itself.

Solved cases below.
CN1C(=O)NC(=O)[C@@]12Cc1cc3ccc(CN4CC5(C)CC(=O)Nc6cccc4c65)nc3cc1C2 (some centres undefined) : 34
CN1C(=O)NC(=O)[C@@]12Cc1cc3ccc(CN4CC5CC(=O)Nc6cccc4c65)nc3cc1C2 (some centres undefined) : 41
CC12CC(=O)Nc3cccc(c31)N(Cc1ccc3cc4c(cc3n1)C[C@@]1(C4)C(=O)Nc3ncccc31)C2 (some centres undefined) : 6

What does the data say about its bioavailability? Entry: CCC12CC(=O)Nc3cccc(c31)N(Cc1ccc3cc4c(cc3n1)C[C@@]1(C4)C(=O)Nc3ncccc31)C2 (some centres undefined)
9

====

experiment: Oral bioavailability in rhesus monkey at 2 mg/kg in presence of methylcellulose; type: ADME, organism-based, Macaca mulatta; conditions: in vivo
Metric: bioavailability (%)
Please reply with the bare figure in % and do not write the unit itself.

What does the data say about its bioavailability? Entry: CN1C(=O)NC(=O)[C@@]12Cc1cc3ccc(CN4CC5(C)CC(=O)Nc6cccc4c65)nc3cc1C2 (stereo partly specified)
38

====

assay: Clearance in rat at 5 mg/kg, po or 1 mg/kg, iv; type: ADME, organism-based; settings: in vivo
// clearance lookup, one value per entry

O=C1CC2CN(Cc3ccc4cc5c(cc4n3)C[C@@]3(C5)C(=O)Nc4ncccc43)c3cccc(c32)N1 (some centres not stated) : 1.14 L/h/kg

// below: clearance requested for another compound
What does the data say about its clearance? Entry: O=C1Cn2c(=O)n(Cc3ccc4cc5c(cc4n3)C[C@@]3(C5)C(=O)Nc4ncccc43)c3cccc(c32)N1
2.4 L/h/kg

====

experiment: Oral bioavailability in rat at 10 mg/kg in presence of methylcellulose; format: ADME, organism-based; conditions: in vivo
Metric: bioavailability (%)
Please reply with the bare figure in % and do not write the unit itself.

Solved cases below.
CN1C(=O)NC(=O)[C@@]12Cc1cc3ccc(CN4CC5(C)CC(=O)Nc6cccc4c65)nc3cc1C2 (some centres undefined) : 45
CN1C(=O)NC(=O)[C@@]12Cc1cc3ccc(CN4C(=O)CCc5ccccc54)nc3cc1C2 : 10
CCC12CC(=O)Nc3cccc(c31)N(Cc1ccc3cc4c(cc3n1)C[C@@]1(C4)C(=O)NC(=O)N1C)C2 (some centres undefined) : 65

// below: bioavailability requested for another compound
What does the data say about its bioavailability? Entry: O=C1CCc2ccccc2N1Cc1ccc2cc3c(cc2n1)C[C@@]1(C3)C(=O)Nc2ncccc21
3

====

assay: Half life in rat at 2 mg/kg, iv; type: ADME, organism-based; design: dose 2 mg/kg, route intravenous; settings: in vivo
// half-life lookup, one value per entry
Please reply with the bare figure in min and do not write the unit itself.

What does the data say about its half-life? Entry: O=C1CCc2ccccc2N1Cc1ccc2cc3c(cc2n1)C[C@@]1(C3)C(=O)Nc2ncccc21
21

Can you handle CN1C(=O)NC(=O)[C@@]12Cc1cc3ccc(CN4CC5CC(=O)Nc6cccc4c65)nc3cc1C2 (some centres not stated) next?
66

Can you handle CCC12CC(=O)Nc3cccc(c31)N(Cc1ccc3cc4c(cc3n1)C[C@@]1(C4)C(=O)Nc3ncccc31)C2 (some centres not stated) next?
36.6

Can you handle CC12CC(=O)Nc3cccc(c31)N(Cc1ccc3cc4c(cc3n1)C[C@@]1(C4)C(=O)Nc3ncccc31)C2 (some centres not stated) next?
37.2

Can you handle CN1C(=O)NC(=O)[C@@]12Cc1cc3ccc(CN4C(=O)CCc5ccccc54)nc3cc1C2 next?
42

Can you handle CCC12CC(=O)Nc3cccc(c31)N(Cc1ccc3cc4c(cc3n1)C[C@@]1(C4)C(=O)NC(=O)N1C)C2 (some centres not stated) next?
66

Can you handle CN1C(=O)NC(=O)[C@@]12Cc1cc3ccc(CN4CC5(C)CC(=O)Nc6cccc4c65)nc3cc1C2 (some centres not stated) next?
96

====

molecular target: Calcitonin gene-related peptide type 1 receptor (Homo sapiens, UniProt O60894+Q16602); experiment: Antagonist activity at human CLR expressed in human HEK293 cells coexpressing human RAMP1 assessed as Inhibition of CGRP-induced cAMP production; format: functional, cell-based
Each record is given t if its reported IC50 is strictly below 5 nM. Records at or above 5 nM are given f.

Please review the entries below; each comes with its answer.
CC12CC(=O)Nc3cccc(c31)N(Cc1ccc3cc4c(cc3n1)C[C@@]1(C4)C(=O)Nc3ncccc31)C2 (some centres not stated) : t
CN1C(=O)Cn2c(=O)n(Cc3ccc4cc5c(cc4n3)C[C@@]3(C5)C(=O)Nc4ncccc43)c3cccc1c32 : t
CN1C(=O)NC(=O)[C@@]12Cc1cc3ccc(CN4CC5(C)CC(=O)Nc6cccc4c65)nc3cc1C2 (some centres not stated) : t
O=C1Cn2c(=O)n(Cc3ccc4cc5c(cc4n3)C[C@@]3(C5)C(=O)Nc4ncccc43)c3cccc(c32)N1 : t
O=C1CCc2ccccc2N1Cc1ccc2cc3c(cc2n1)C[C@@]1(C3)C(=O)Nc2ncccc21 : t
CCC12CC(=O)Nc3cccc(c31)N(Cc1ccc3cc4c(cc3n1)C[C@@]1(C4)C(=O)Nc3ncccc31)C2 (some centres not stated) : t
O=C1CC2CN(Cc3ccc4cc5c(cc4n3)C[C@@]3(C5)C(=O)Nc4ncccc43)c3cccc(c32)N1 (some centres not stated) : t
CN1C(=O)Cn2c(=O)n(Cc3ccc4cc5c(cc4n3)C[C@@]3(C5)C(=O)NC(=O)N3C)c3cccc1c32 : f
CN1C(=O)NC(=O)[C@@]12Cc1cc3ccc(CN4C(=O)CCc5ccccc54)nc3cc1C2 : f
CCC12CC(=O)Nc3cccc(c31)N(Cc1ccc3cc4c(cc3n1)C[C@@]1(C4)C(=O)NC(=O)N1C)C2 (some centres not stated) : f

Decide: IC50 of CN1C(=O)NC(=O)[C@@]12Cc1cc3ccc(Cn4c(=O)n5c6c(cccc64)NC(=O)C5)nc3cc1C2 strictly below 5 nM?
t

Can you handle CN1C(=O)NC(=O)[C@@]12Cc1cc3ccc(CN4CC5CC(=O)Nc6cccc4c65)nc3cc1C2 (some centres not stated) next?
f
